# Measurement Target: Sigma non-opioid intracellular receptor 1 (Homo sapiens)
# Protocol Conditions: Compound concentration 10 µM; call rule not given here
Classes used: yes (active), no (inactive)

Compound String | Measurement Target | Assigned Label
CN1C[C@H](C(=O)N[C@]2(C)O[C@@]3(O)[C@@H]4CCCN4C(=O)[C@H](Cc4ccccc4)N3C2=O)C[C@@H]2c3cccc4[nH]cc(c34)C[C@H]21 | Sigma non-opioid intracellular receptor 1 (Homo sapiens) | yes
CCc1nn2c(C)cc(C)nc2c1Cc1ccc(-c2nnc(C3CCNCC3)o2)cc1 | Sigma non-opioid intracellular receptor 1 (Homo sapiens) | yes
CCCCN1CCC(COC(=O)c2cc(Cl)c(N)c3c2OCCO3)CC1 | Sigma non-opioid intracellular receptor 1 (Homo sapiens) | yes
FC(F)(F)c1c(N2CCC(c3ccccc3)CC2)ccn2c(CC3CC3)nnc12 | Sigma non-opioid intracellular receptor 1 (Homo sapiens) | yes
Clc1ccc(CCCOCCCN2CCCCC2)cc1 | Sigma non-opioid intracellular receptor 1 (Homo sapiens) | yes
NC[C@@H]1O[C@H](C23CC4CC(CC(C4)C2)C3)Cc2c1ccc(O)c2O | Sigma non-opioid intracellular receptor 1 (Homo sapiens) | no
COC(=O)C1=C(C)NC(C)=C(C(=O)OCCCN2CCC(c3ccccc3)(c3ccccc3)CC2)[C@H]1c1cccc([N+](=O)[O-])c1 | Sigma non-opioid intracellular receptor 1 (Homo sapiens) | yes
c1nc(CC2CCNCC2)c[nH]1 | Sigma non-opioid intracellular receptor 1 (Homo sapiens) | no
CCC(=O)NCC[C@@H]1CCc2ccc3c(c21)CCO3 | Sigma non-opioid intracellular receptor 1 (Homo sapiens) | yes
C[C@H](CO)Nc1nc(SCc2cccc(Cl)c2F)nc2[nH]c(=O)sc12 | Sigma non-opioid intracellular receptor 1 (Homo sapiens) | no

* * *

# Measurement Target: 5-hydroxytryptamine receptor 2B (Homo sapiens)
# Protocol Conditions: Compound concentration 10 µM
Measurement Kind: inhibition (%)

Compound String | Assay Result
O=C(O)COc1cccc(CN(Cc2ccc(-n3cccn3)cc2)S(=O)(=O)c2cccnc2)c1 | 5.26
COC(=O)C1=C(C)NC(C)=C(C(=O)OCCCN2CCC(c3ccccc3)(c3ccccc3)CC2)[C@H]1c1cccc([N+](=O)[O-])c1 | 83.2
N#Cc1c(O)nc(SCc2cccc(F)c2F)nc1C1CC1 | 9.1
S=C(NCCCc1c[nH]cn1)NCCCN(Cc1ccc(Cl)c(Cl)c1)c1ccc(Br)cn1 | 94.5

* * *

# Measurement Target: D(2) dopamine receptor (Homo sapiens)
# Protocol Conditions: Compound concentration 10 µM; call rule not given here
Outcomes: active, inactive

Compound String | Assigned Label
O=C(O)CC/C=C\C[C@@H]1CO[C@H](c2ccccc2Cl)O[C@@H]1c1ccccc1O | inactive
C/C(=N\NC(=O)[C@@H]1C(=O)NC[C@H]1c1ccccc1)c1cccc(Br)c1 | inactive
COc1ccccc1N1CCN(CCCCNC(=O)c2ccc3ccccc3c2)CC1 | active
CCCNS(=O)(=O)Nc1ncnc(OCCOc2ncc(Br)cn2)c1-c1ccc(Br)cc1 | inactive

* * *

# Measurement Target: Beta-3 adrenergic receptor (Homo sapiens) (UniProt P13945)
# Sequence (P13945 whole entry, looked up): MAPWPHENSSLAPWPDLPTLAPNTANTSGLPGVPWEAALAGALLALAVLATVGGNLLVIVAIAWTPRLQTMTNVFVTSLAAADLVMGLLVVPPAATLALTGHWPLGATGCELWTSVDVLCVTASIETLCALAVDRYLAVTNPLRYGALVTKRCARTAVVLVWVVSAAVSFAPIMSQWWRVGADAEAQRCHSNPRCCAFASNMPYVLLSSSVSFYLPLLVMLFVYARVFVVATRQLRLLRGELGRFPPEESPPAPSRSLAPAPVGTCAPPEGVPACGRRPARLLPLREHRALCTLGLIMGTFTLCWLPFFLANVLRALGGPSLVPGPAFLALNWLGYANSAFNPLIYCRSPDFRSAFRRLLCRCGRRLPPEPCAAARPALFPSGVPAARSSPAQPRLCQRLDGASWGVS
# Protocol Conditions: Compound concentration 10 µM; call rule not given here
Classes used: yes (active), no (inactive)

Molecule | Measurement Target | Assigned Label
FC(F)(F)c1c(N2CCC(c3ccccc3)CC2)ccn2c(CC3CC3)nnc12 | Beta-3 adrenergic receptor (Homo sapiens) (UniProt P13945) | no
CCOC(=O)c1c(C)[nH]c2ccc3c(c12)CN1CCc2cc(OC)ccc2C1O3 (centres undefined) | Beta-3 adrenergic receptor (Homo sapiens) (UniProt P13945) | no
C[C@]1(C(=O)N(CCCC(=O)O)Cc2cccc(Cl)c2)CCN1C(=O)c1csc2ccccc12 | Beta-3 adrenergic receptor (Homo sapiens) (UniProt P13945) | no
Cc1cc(C(=O)N2Cc3cnn(C)c3Nc3ccccc32)ccc1CNC(=O)N1CCC[C@H]1C(=S)N1CCCN(C)CC1 | Beta-3 adrenergic receptor (Homo sapiens) (UniProt P13945) | no
C[C@@H](NCCc1ccc(O)cc1)[C@@H](O)c1ccc(O)cc1 (relative stereo) | Beta-3 adrenergic receptor (Homo sapiens) (UniProt P13945) | yes
FC(F)(F)c1cccc(-c2noc(-c3cc(-c4ccccc4)c(C(F)(F)F)s3)n2)c1 | Beta-3 adrenergic receptor (Homo sapiens) (UniProt P13945) | no
Cc1c(OCc2cccc(-c3ccc(C(=O)O)cc3)c2)cc2c(c1C)C(=O)C(C1CCCC1)C2 (centres undefined) | Beta-3 adrenergic receptor (Homo sapiens) (UniProt P13945) | yes
CCc1cc2c(c(CC)n1)CCC(=O)N2Cc1ccc(-c2ccccc2-c2nnn[nH]2)cc1 | Beta-3 adrenergic receptor (Homo sapiens) (UniProt P13945) | no
O=C(O)CC1CCC2(CC1)CCN(c1cc(OC(F)(F)F)ccc1Cl)CC2 | Beta-3 adrenergic receptor (Homo sapiens) (UniProt P13945) | no

* * *

# Measurement Target: Muscarinic acetylcholine receptor M4 (Homo sapiens) (UniProt P08173)
# Sequence (P08173 whole entry): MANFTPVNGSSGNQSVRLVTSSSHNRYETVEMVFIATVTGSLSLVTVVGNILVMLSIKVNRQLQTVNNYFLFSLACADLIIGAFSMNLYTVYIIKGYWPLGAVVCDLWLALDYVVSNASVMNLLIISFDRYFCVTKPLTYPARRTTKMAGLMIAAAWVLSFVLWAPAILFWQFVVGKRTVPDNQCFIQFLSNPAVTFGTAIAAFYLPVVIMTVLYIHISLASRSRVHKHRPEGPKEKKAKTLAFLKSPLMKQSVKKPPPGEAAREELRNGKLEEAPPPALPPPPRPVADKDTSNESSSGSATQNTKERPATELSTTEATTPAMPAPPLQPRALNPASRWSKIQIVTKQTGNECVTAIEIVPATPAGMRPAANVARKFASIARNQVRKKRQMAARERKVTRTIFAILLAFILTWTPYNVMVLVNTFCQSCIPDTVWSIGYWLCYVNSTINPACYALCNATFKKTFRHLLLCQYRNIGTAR
# Protocol Conditions: Compound concentration 10 µM; call rule not given here
Classes used: Yes (active), No (inactive)

Compound | Assigned Label
COc1ccc(NS(=O)(=O)c2sc3ccc(Cl)cc3c2C)cc1N1CCNCC1 | No
Cc1cc(C)cc(-c2cnc3cc(Cl)c(-c4cccc(O)c4)cc3c2OCCCN)c1 | No
OC1(c2ccc(Cl)cc2)CCN(Cc2c[nH]c3ccccc23)CC1 | No
CC1CCN(CC[C@H]2CCCN2S(=O)(=O)c2cccc(O)c2)CC1 | No
CN(C)C(=O)C(CCN1CCC(O)(c2ccc(Cl)cc2)CC1)(c1ccccc1)c1ccccc1 | No
CCCCN1CCC(COC(=O)c2cc(Cl)c(N)c3c2OCCO3)CC1 | No
CCN(CC)CCCCC1CCN(CC(=O)N2c3ccccc3C(=O)Nc3cccnc32)CC1 | Yes
c1nc(CC2CCNCC2)c[nH]1 | No
CC1(C)SSC(C)(C)[C@@H](NC(=O)[C@@H](N)Cc2ccc(O)cc2)C(=O)NCC(=O)N[C@@H](Cc2ccccc2)C(=O)N[C@H]1C(=O)O | No
COc1ccnc(N2CCC3(CCCN(Cc4c[nH]c5ccccc45)C3=O)CC2)n1 | No
C[C@H](CO)Nc1nc(SCc2cccc(Cl)c2F)nc2[nH]c(=O)sc12 | No
CCc1cc2c(c(CC)n1)CCC(=O)N2Cc1ccc(-c2ccccc2-c2nnn[nH]2)cc1 | No
CC(C)NCC(O)COc1cccc2ccccc12 (stereo not drawn) | No
CCCCCNC(=N)N/N=C/c1c[nH]c2ccc(OC)cc12 | No
C[C@H](NC[C@H](O)CP(=O)(O)CC1CCCCC1)c1ccc(Cl)c(Cl)c1 | No
CCc1cc(C(C)=O)c(O)cc1OCCCCCC(C)(C)c1nn[nH]n1 | No
COC(=O)[C@H]1[C@H]2C[C@H]3c4[nH]c5ccccc5c4CCN3C[C@H]2CC[C@@H]1O | No
Cc1c(C2=CCN(C(=O)N(C)C(C)C)CC2)nnn1-c1cccnc1F | No
CN1CCCC(n2nc(Cc3ccc(Cl)cc3)c3ccccc3c2=O)CC1 (stereo not drawn) | Yes
CC(C)Oc1ccccc1C(=O)Nc1ccccc1C(=O)Nc1cccc(S(=O)(=O)C(F)(F)F)c1 | No
Oc1ccc2c3c1O[C@H]1c4[nH]c5c(c4C[C@@]4(O)[C@@H](C2)N(CC2CC2)CC[C@]314)C[C@@]1(O)[C@H]2Cc3ccc(O)c4c3[C@@]1(CCN2CC1CC1)[C@H]5O4 | No
CN1CCC(=C2c3ccccc3CC(=O)c3sccc32)CC1 | Yes
N#Cc1c(N)nc(SCC(N)=O)c(C#N)c1-c1ccc(OCC2CC2)cc1 | No
Cc1nc(-c2ccc(C(F)(F)F)cc2)sc1COc1ccc([C@H](CC(=O)O)c2ccon2)cc1 | No
COc1cccc([C@@H](C)NCCCc2ccccc2Cl)c1 | No
Cc1csc(NC(=O)c2cc(F)cc(Oc3cncnc3)c2)n1 | No
Cc1nc(C#Cc2ccnc(Cl)c2)c(C)n1-c1ccc(OC(F)(F)F)cc1 | No
COc1ccc(Br)cc1S(=O)(=O)NC(=O)/C=C/c1ccccc1Cc1ccc2ccccc2c1 | No

* * *

# Measurement Target: Histamine H4 receptor (Homo sapiens) (UniProt Q9H3N8)
# Sequence (Q9H3N8 whole entry): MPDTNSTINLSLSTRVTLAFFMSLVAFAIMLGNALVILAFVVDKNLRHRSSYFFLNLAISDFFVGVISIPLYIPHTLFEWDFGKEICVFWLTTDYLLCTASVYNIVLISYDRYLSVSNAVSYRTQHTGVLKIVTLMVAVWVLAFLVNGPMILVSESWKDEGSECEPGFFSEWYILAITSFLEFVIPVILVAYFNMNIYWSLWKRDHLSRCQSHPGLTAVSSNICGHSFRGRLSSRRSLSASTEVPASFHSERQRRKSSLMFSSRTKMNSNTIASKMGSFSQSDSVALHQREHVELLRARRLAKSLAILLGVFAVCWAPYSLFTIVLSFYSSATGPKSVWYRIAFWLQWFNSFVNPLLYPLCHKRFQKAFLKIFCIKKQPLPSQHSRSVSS
# Protocol Conditions: Compound concentration 10 µM; call rule not given here
Labels: active, inactive

Compound | Assigned Label
Cc1c(OCc2cccc(-c3ccc(C(=O)O)cc3)c2)cc2c(c1C)C(=O)C(C1CCCC1)C2 (stereo unspecified) | inactive
Cc1nc2sccn2c(=O)c1CCN1CCC(=C(c2ccc(F)cc2)c2ccc(F)cc2)CC1 | active
CN1CCC(C(=O)c2cccc(NC(=O)c3c(F)cc(F)cc3F)n2)CC1 | inactive
O=C(O)c1n[nH]c2c1C[C@H]1C[C@@H]21 | inactive
COc1ccc(Br)cc1S(=O)(=O)NC(=O)/C=C/c1ccccc1Cc1ccc2ccccc2c1 | inactive
C[C@@H](NCCc1ccc(O)cc1)[C@@H](O)c1ccc(O)cc1 (relative stereo) | inactive
